Measured values drawn from PubChem BioAssay (NCI) for this set.

- System: MDA-MB-231 breast
- protocolText: NCI-60 one-dose screen, 48 h (100 = growth as untreated, 0 = no growth, -100 = all killed)
- testContext: 10 µM unless noted
- Experimental: Cells are grown in 96 well plates and exposed to the test compound for 48 hours. Compounds are tested at a single concentration, which is 10^-5 M for most compounds. The reported endpoint is percent growth (GI% or GIPRCNT), where numbers from 0 - 100% represent growth inhibition, and numbers from -100% - 0 represent cell death. For example, a value of 40 represents 60% growth inhibition. A value of 0 means no net growth occurred over the course of the experiment. […]
The panel holds about 83,000 compounds, 20% with a hit somewhere; the sample as a whole holds those more often.
Please provide measured growth for the entries that follow.
Enter your answer as a number in %; do not include the unit.

**Query** Which value of growth has been reported for `O=C(O)CCN1C(=O)/C(=C/C(Cl)=C/c2ccccc2)SC1=S` in the records?
**Result** 49.9

**Query** Also need `O=C(N/N=C/c1c(Cl)cccc1Cl)c1cccnc1Nc1cccc(C(F)(F)F)c1` , thanks.
**Result** 55.9

**Query** Also need `COC(=O)CC[C@@H]1O[C@@H](c2cccc(C(F)(F)F)c2)[C@@H](O)[C@H]1O` , thanks.
**Result** 108

**Query** Also need `C/C(=N\O)c1ccc(Cl)cc1` , thanks.
**Result** 116

**Query** Also need `Cc1ccc(C(=O)c2ccc(CC(=O)N/N=C/c3ccccc3O)n2C)cc1` , thanks.
**Result** 82.6

**Query** Also need CCn1cc(C(=O)O)c(=O)c2cc(F)c(N3CCN(CC(=O)Nc4ccc(S(=O)(=O)Nc5nccc(C)n5)cc4)C(C)C3)c(F)c21 (configuration not stated) , thanks.
**Result** 100

**Query** Also need `CCOC(=O)n1cc(-c2nonc2-c2cn(C(=O)OCC)c3ccc(Br)cc23)c2ccccc21` , thanks.
**Result** 74

====

- Test system: OVCAR-8 ovarian
- protocolText: NCI-60 one-dose screen, 48 h
- testContext: 10 µM unless noted
This is part of a sample that, as a whole, favours compounds with a hit. Of some 83,000 tested, about 20% had one in any assay. Activity calls are given as the source filed them. The calls were made as follows: active = growth percent below 10; inactive = the rest.
A correct response names exactly one class from true (1) = active, false (0) = inactive

**Query** Status in this test for `Nc1nc(N)c(-c2ccc(Cl)c(Cl)c2)c(CBr)n1` ?
**Result** false (0)

**Query** Also need `C=CCSc1nnc(NC(=O)CCl)s1` , thanks.
**Result** false (0)

**Query** Also need `O=C(CN1C(=O)S/C(=C\c2ccccc2)C1=O)Nc1ncc(Cc2ccccc2Cl)s1` , thanks.
**Result** false (0)

**Query** Also need `COc1ccc(/C=C(\C#N)n2nnc3cc(Cl)ccc32)cc1` , thanks.
**Result** false (0)

**Query** Also need `COc1ccc(C(=O)Nc2cccc(-c3cc(=O)c4c(OC)c(OC)c(OC)cc4o3)c2)cc1` , thanks.
**Result** false (0)

**Query** Also need `CCN(CC)CCn1c2ccc(O)cc2c2sc3cc(O)ccc3c(=O)c21` , thanks.
**Result** false (0)

**Query** Also need `Nc1cc(C(=O)NC[C@H]2CN(c3ccc(N4CCC(C(=O)O)CC4)cc3)C(=O)O2)ccc1Cl` , thanks.
**Result** false (0)

**Query** Also need `CCOC(=O)[C@@H]1CSC(CC)=C(C(=O)O)N1` , thanks.
**Result** false (0)

**Query** Also need COc1cc2c(c(OC)c1OC)CCC(c1cccc(NC(=O)c3ccc(Br)cc3)c1)O2 (stereo not drawn) , thanks.
**Result** false (0)

**Query** Also need `Cc1ccc(NC(=O)Cn2cc(CN3CCN(c4ccnc5cc(Cl)ccc45)CC3)nn2)cc1` , thanks.
**Result** false (0)

**Query** Also need `COc1cc2c(cc1OCCCN1CCN(CCCOc3cc4c(cc3OC)C(=O)N3CC(F)(F)C[C@H]3C=N4)CC1)N=C[C@@H]1CC(F)(F)CN1C2=O` , thanks.
**Result** false (0)

**Query** Also need `Cc1c2cnccc2c(C)c2c1c1cc(C#N)ccc1n2C` , thanks.
**Result** true (1)

**Query** Also need `COc1ccc(/C=C(\C#N)n2nnc3cc(F)c(F)cc32)cc1` , thanks.
**Result** false (0)

**Query** Also need `O=C(Nc1cccc2ccccc12)NC1CC1` , thanks.
**Result** false (0)

**Query** Also need `N#Cc1c(-c2ccccc2)cc(-c2ccccc2)n(CCCC(=O)Nc2ccccc2N)c1=O` , thanks.
**Result** false (0)

**Query** Also need `Cc1cc(C(=O)O)c(C)n1-c1cccc(C(=O)O)c1` , thanks.
**Result** false (0)

**Query** Also need `Cn1ccc(=O)c(C(=O)Nc2nsc3ccc([N+](=O)[O-])cc23)c1` , thanks.
**Result** false (0)

**Query** Also need CC1=C([Se]CC(OC(=O)CC[Se]c2ccccc2)C(=O)NC(C)(C)C)C(=O)c2ccccc2C1=O (stereo not drawn) , thanks.
**Result** true (1)

**Query** Also need `COc1c(C(=O)Nc2ccc(C)c(Br)c2)ccc2ccccc12` , thanks.
**Result** false (0)

**Query** Also need `c1cc2c(ccc3[nH]c(-c4ccc5[nH]ncc5c4)c4c(c32)CCCC4)n1` , thanks.
**Result** false (0)

**Query** Also need `COc1cc(-c2nccc3[nH]c(-c4ccc5cc[nH]c5c4)nc23)cc(OC)c1OC` , thanks.
**Result** false (0)

**Query** Also need `Cc1cccc(/C=C/c2c(C(=O)/C=C/c3ccccc3)c(C)nc3ccccc23)c1` , thanks.
**Result** true (1)

**Query** Also need `CSc1nnc(-c2cc3c([nH]c4ccccc43)c(-c3cccc(O)c3)n2)n1-c1ccccc1` , thanks.
**Result** false (0)

**Query** Also need `N#CC(C#N)N=Nc1ccc(Br)cc1` , thanks.
**Result** false (0)

**Query** Also need `COC(=O)c1c(C)nc(C)c2c1C(=O)C(Br)=C(NCc1ccccc1)C2=O` , thanks.
**Result** true (1)

**Query** Also need `O=C(CN1CCOCC1)Nc1nc(-c2cc3ccccc3oc2=O)cs1` , thanks.
**Result** false (0)

**Query** Also need `C=C1C(=O)O[C@H]2[C@H]1CC/C(COC(=O)C(=O)c1cn(C)c3ccc(Cl)cc13)=C\CC[C@@]1(C)O[C@@H]21` , thanks.
**Result** true (1)

**Query** Also need `COc1cc(NS(=O)(=O)c2ccc(-c3cnc(C4CC4)o3)cc2)ccc1F` , thanks.
**Result** false (0)
